system: Lactobacillus gasseri; test: growth AUC relative to DMSO control (median of replicates) (fraction); higher = more growth (less inhibition), active = hit call of the paper; conditions: 20 µM; 24 h

# MOLECULE, growth AUC
records = [
    ("CC(C)C1C2CCC1c1c(NC(=O)c3cn(C)nc3C(F)F)cccc12 (stereo not given)", 0.702),
    ("CCc1cccc(C)c1N(C(=O)CS(=O)(=O)[O-])C(C)COC.[Na+] (stereo not given)", 0.91),
    ("Oc1c(Cl)cc(Cl)c(Cl)c1Cc1c(O)c(Cl)cc(Cl)c1Cl", 0.037),
    ("N[C@@H](Cc1cc(I)c(Oc2cc(I)c(O)c(I)c2)c(I)c1)C(=O)O", 0.87),
    ("COc1ccccc1C(=O)NS(=O)(=O)c1ccc(C(=O)NC2CC2)cc1", 1.21),
    ("COC(=O)C(C)Oc1ccc(Oc2ncc(C(F)(F)F)cc2Cl)cc1 (stereo not given)", 0.84),
    ("COC(=O)c1ccccc1S(=O)(=O)NC(=O)Nc1nc(OC(F)F)cc(OC(F)F)n1", 1.19),
    ("Cc1ccc(Cl)cc1", 1.06),
    ("Oc1ccccc1", 1.08),
    ("CCCCN(C)C(=O)Nc1ccc(Cl)c(Cl)c1", 0.965),
    ("COc1cccc(N(C)C(=S)Oc2cccc(C(C)(C)C)c2)n1", 1.06),
    ("CCC/C(=N\\OCC(C)Oc1ccc(Cl)cc1)C1=C(O)CC(C2CCCSC2)CC1=O (stereo not given)", 1.02),
    ("CCc1ccc(O)cc1", 0.963),
    ("CCOc1nc(F)cc2nc(S(=O)(=O)Nc3c(Cl)cccc3C(=O)OC)nn12", 1.01),
    ("Oc1ccccc1O", 1),
]

Data provenance: the supplement of paper PMC12669032
